molecular target: Sodium-dependent serotonin transporter (Homo sapiens, UniProt P31645); experiment: Inhibition of [3H]serotonin uptake at human SERT expressed in HEK293 cells
Sequence (P31645 whole entry): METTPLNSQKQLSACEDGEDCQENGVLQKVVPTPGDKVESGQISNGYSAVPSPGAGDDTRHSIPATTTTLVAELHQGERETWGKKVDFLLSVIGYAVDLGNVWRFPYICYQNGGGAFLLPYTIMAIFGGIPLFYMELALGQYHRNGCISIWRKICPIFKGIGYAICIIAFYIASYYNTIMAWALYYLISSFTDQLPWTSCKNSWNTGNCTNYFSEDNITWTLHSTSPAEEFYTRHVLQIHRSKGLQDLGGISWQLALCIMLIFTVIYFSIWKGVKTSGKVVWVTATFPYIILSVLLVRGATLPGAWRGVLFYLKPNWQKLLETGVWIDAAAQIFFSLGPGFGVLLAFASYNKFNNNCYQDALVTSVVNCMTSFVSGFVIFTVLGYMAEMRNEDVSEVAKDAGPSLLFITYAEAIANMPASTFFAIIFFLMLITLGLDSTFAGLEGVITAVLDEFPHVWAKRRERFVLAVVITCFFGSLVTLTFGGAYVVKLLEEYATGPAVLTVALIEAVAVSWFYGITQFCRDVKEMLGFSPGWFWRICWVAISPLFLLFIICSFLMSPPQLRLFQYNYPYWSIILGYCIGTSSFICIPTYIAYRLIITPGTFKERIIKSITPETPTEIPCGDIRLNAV
# maps each entry to its IC50
# number then unit; no other words

In [3]: df
Out[3]:
                                   compound   result
0  CC(NC(C)(C)C)C(=O)c1ccc(Cl)cc1 (stereo unspecified)   9.8 µM
1  CCC(NC(C)(C)C)C(=O)c1ccc(Cl)c(Cl)c1 (stereo unspecified)  1.09 µM
2  COc1cccc(C(=O)C(C)NC2CCCC2)c1 (stereo unspecified)   6.9 µM
3  CC(NC(C)(C)C)C(=O)c1ccc(Cl)c(Cl)c1 (stereo unspecified)   8.8 µM
4  CC(NC(C)(C)C)C(=O)c1ccc(Br)cc1 (stereo unspecified)  4.51 µM

// field: IC50; key: CCCC(NC(C)(C)C)C(=O)c1ccc(Cl)c(Cl)c1 (stereo unspecified) ; value = 2.3 µM

====

target: Neuronal acetylcholine receptor; alpha4/beta2 (Homo sapiens) (UniProt P17787+P43681); assay: Intrinsic activity at human alpha4beta2 nAChR receptor expressed in human SH-SY5Y cells assessed as 86Rb+ efflux at 5 to 100 uM by liquid scintillation counting; format: cell-based
Calls of active or inactive are those of the source. No cut-off for these calls is given here.
recorded_metric: Activity

Consider the worked cases shown below.
                                   molecule    result
0  COc1cccc(C(=O)C(C)NC2CCCC2)c1 (stereo not drawn)  inactive
1  Cc1cccc(C(=O)C(C)NC2CCCC2)c1 (stereo not drawn)  inactive
2  CC(NC1CCCC1)C(=O)c1cccc([N+](=O)[O-])c1 (stereo not drawn)  inactive
3  CC(NC(C)(C)C)C(=O)c1cccs1 (stereo not drawn)  inactive
4  CC(NC(C)(C)C)C(=O)c1ccc(F)c(F)c1 (stereo not drawn)  inactive

The reported value for CC(NC(C)(C)C)C(=O)c1cccc(Cl)c1 (stereo not drawn) in terms of Activity is inactive

====

biological target: Sodium-dependent dopamine transporter (Homo sapiens, UniProt Q01959); assay: Inhibition of [3H]dopamine uptake at human DAT expressed in HEK293 cells
Sequence (Q01959 whole entry): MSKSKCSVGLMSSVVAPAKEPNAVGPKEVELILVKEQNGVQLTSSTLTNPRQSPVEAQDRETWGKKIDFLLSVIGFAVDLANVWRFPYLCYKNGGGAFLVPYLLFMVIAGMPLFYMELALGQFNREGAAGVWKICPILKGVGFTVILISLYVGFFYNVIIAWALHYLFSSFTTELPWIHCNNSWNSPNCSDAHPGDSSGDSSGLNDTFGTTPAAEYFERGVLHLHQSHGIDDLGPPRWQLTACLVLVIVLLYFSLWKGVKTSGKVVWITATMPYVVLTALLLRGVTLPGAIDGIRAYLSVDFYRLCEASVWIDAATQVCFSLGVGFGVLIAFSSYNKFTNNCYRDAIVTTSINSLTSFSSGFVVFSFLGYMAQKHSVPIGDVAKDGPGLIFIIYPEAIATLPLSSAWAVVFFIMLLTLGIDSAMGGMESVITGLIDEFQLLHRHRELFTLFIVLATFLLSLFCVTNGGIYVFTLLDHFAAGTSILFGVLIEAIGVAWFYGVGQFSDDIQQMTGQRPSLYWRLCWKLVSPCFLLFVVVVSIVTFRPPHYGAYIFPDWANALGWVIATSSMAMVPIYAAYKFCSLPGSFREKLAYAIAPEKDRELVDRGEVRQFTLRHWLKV
# pIC50 annotations
Formally, pIC50 is defined as -log10 of the concentration c, with c in mol/L.

                                   compound  recorded_metric  recorded_number
0  CC(C(=O)c1cccc(Cl)c1)N1CCCCC1 (stereo unspecified)            pIC50             6.07
1  CC(NC(C)(C)C)C(=O)c1ccc(Cl)cc1 (stereo unspecified)            pIC50             5.96
2  CC(NC1CCCC1)C(=O)c1cccc(Br)c1 (stereo unspecified)            pIC50             6.07

Data point: CC(NC1CCCC1)C(=O)c1cccc(F)c1 (stereo unspecified) ; pIC50 = 6.16

Form field pIC50, entry CC(NC(C)(C)C)C(=O)c1ccc(Br)cc1 (stereo unspecified) : 6.16

// pIC50 value for Cc1cccc(C(=O)C(C)NC2CCCC2)c1 (stereo unspecified) : 6.07
